Task for the reader: assign each of the following compounds its reported IC50.
# Test system: 299254-011-R-J1-PDC complex spheroid viability;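 note: spheroids exposed to drugs for one week before measurement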
# Measurement Protocol: Anticancer human tumor 299254-011-R-J1-PDC patient-derived melanoma cell line growth inhibition [POLQ]
# Measurement Setup: curve of first compound; second compound 1 µM

Would you mind telling me what IC50 value was observed for COc1cc(C2c3cc4c(cc3C(OC3OC5COC(C)OC5C(O)C3O)C3COC(=O)C23)OCO4)cc(OC)c1O (stereo not given) + Cc1cccc(N(C)C(=O)C2C(O)CCN2c2nc(C)cc(C(F)(F)F)c2C#N)c1 ?
> 10 µM

Quick one: IC50 for CNCc1ccc(-c2[nH]c3cc(F)cc4c3c2CCNC4=O)cc1 + Cc1cccc(N(C)C(=O)C2C(O)CCN2c2nc(C)cc(C(F)(F)F)c2C#N)c1 ?
> 10 µM

GET /values?readout=IC50&item= CCc1c2c(nc3ccc(O)cc13)-c1cc3c(c(=O)n1C2)COC(=O)[C@]3(O)CC + COC1C(OC(N)=O)C(O)C(Oc2ccc3c(O)c(NC(=O)c4ccc(O)c(CC=C(C)C)c4)c(=O)oc3c2C)OC1(C)C
> 1 µM

# lookup: IC50 of C#Cc1c(F)ccc2cc(O)cc(-c3ncc4c(N5CC6CCC(C5)N6)nc(OCC56CCCN5CC(F)C6)nc4c3F)c12 (stereo not given) + COC1C(OC(N)=O)C(O)C(Oc2ccc3c(O)c(NC(=O)c4ccc(O)c(CC=C(C)C)c4)c(=O)oc3c2C)OC1(C)C
> 10 µM

Which value of IC50 has been reported for CCc1cc2c(N3CCc4c(cc(Cn5ccnc5)cc4-c4cn(C)nc4C(F)(F)F)C3=O)cc(C)nc2c(OC)n1 + Nc1ccc(C#CCN(C(=O)Cc2ncc(C(F)(F)F)cc2C(F)(F)F)c2ccc(F)cc2)nn1 in the records?
> 10 µM
